These data points were gathered from ChEMBL document CHEMBL3885861.

Species on record: Rattus norvegicus
ASSAY_COMMENT: Open TG-GATES - Regimen: Single
Assay type: toxicity, organism-based, Sprague-Dawley
Design: regimen Single, gender Male, age 6 weeks
EXPERIMENTAL_PARAMETERS: in vivo, po, 30 mg/kg, 24 h, tissue Blood, route gavage, dose level Middle
EXPERIMENTAL_ENDPOINT: WBC
The reply should read as a number followed by its unit.

Query :: Fill in the blank: the reported WBC of CN(C)CCCN1c2ccccc2CCc2ccc(Cl)cc21 is ____.
Result :: 83.8 x10_2/uL

Query :: CN(C)CCN(Cc1cccs1)c1ccccn1 ?
Result :: 67.2 x10_2/uL

Query :: CN(C)CCCN1c2ccccc2CCc2ccccc21 ?
Result :: 75.5 x10_2/uL

Query :: CC1=C(/C=C/C(C)=C/C=C/C(C)=C/CO)C(C)(C)CCC1 ?
Result :: 76.3 x10_2/uL
